- Study system: cyno MSLN (Macaca fascicularis)
- Protocol details: BLI (Octet), bsAb in 1+1 Fab-scFv-Fc format
Measured metric: Response
Output spec: single numeric token, no unit.

What Response value was documented for this binder, XENP32555 (bispecific antibody, part only; not given: anti-CD3 scFv-Fc arm, constant regions, V domains shown, not shown: another chain or arm of the molecule; a dimerising Fc or GST; small tags and cut ends) VH: QVQLVQSGAEVKKPGASVKVSCKASGYTFTSYWMHWVRQAPGQGLEWMGMIHPNSGNTIYYEKFQGRVTMTVDKSISTAYMELSRLRSDDTAVYYCAIIITPVVPKFDYWGQGTLVTVSS VL: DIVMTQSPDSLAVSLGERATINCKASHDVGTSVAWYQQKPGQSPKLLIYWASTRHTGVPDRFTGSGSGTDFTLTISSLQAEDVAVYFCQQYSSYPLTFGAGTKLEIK ?
1.11

What Response value was documented for this binder, XENP32566 (bispecific antibody, part only; not given: anti-CD3 scFv-Fc arm, constant regions, V domains shown, not shown: another chain or arm of the molecule; a dimerising Fc or GST; small tags and cut ends) VH: QVQLVQSGAEVKKPGASVKVSCKASGYTFTSYWMHWVRQAPGQGLEWMGMIHPNSDNTIYYEKFQGRVTMTVDKSISTAYMELSRLRSDDTAVYYCAIIITPVVPKFDYWGQGTLVTVSS VL: DIVMTQSPDSLAVSLGERATINCKASHDVGTSVAWYQQKPGQSPKLLIYWASTRHSGVPDRFTGSGSGTDFTLTISSLQAEDVAVYFCQQYSSYPLTFGAGTKLEIK ?
0.941

What Response value was documented for this binder, XENP32556 (bispecific antibody, part only; not given: anti-CD3 scFv-Fc arm, constant regions, V domains shown, not shown: another chain or arm of the molecule; a dimerising Fc or GST; small tags and cut ends) VH: QVQLVQSGAEVKKPGASVKVSCKASGYTFTSYWMHWVRQAPGQGLEWMGMIHPNSDNTIYYEKFQGRVTMTVDKSISTAYMELSRLRSDDTAVYYCARIITPVVPKFDYWGQGTLVTVSS VL: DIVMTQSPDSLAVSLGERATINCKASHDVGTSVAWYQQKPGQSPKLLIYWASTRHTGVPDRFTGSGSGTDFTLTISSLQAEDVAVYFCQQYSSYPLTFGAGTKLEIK ?
1.07

What Response value was documented for this binder, XENP32558 (bispecific antibody, part only; not given: anti-CD3 scFv-Fc arm, constant regions, V domains shown, not shown: another chain or arm of the molecule; a dimerising Fc or GST; small tags and cut ends) VH: QVQLVQSGAEVKKPGASVKVSCKASGYTFTSYWMHWVRQAPGQGLEWMGMIHPNSDNTIYYEKFQGRVTMTVDKSISTAYMELSRLRSDDTAVYYCAIIITPVVPRFDYWGQGTLVTVSS VL: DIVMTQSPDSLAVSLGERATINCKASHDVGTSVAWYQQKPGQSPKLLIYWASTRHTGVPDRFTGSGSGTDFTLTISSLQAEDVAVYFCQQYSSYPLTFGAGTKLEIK ?
1.11
